Where do the numbers come from? From patent US20150166606A1.

The entries below are paired with their reported Avg. IC50.
- EXPERIMENTAL_SYSTEM: Activated human plasma kallikrein (Enzyme Research Laboratories, HPKa 1303) (human, UniProt P03952 20-638)
- Sequence (P03952 20-638 limits assumed): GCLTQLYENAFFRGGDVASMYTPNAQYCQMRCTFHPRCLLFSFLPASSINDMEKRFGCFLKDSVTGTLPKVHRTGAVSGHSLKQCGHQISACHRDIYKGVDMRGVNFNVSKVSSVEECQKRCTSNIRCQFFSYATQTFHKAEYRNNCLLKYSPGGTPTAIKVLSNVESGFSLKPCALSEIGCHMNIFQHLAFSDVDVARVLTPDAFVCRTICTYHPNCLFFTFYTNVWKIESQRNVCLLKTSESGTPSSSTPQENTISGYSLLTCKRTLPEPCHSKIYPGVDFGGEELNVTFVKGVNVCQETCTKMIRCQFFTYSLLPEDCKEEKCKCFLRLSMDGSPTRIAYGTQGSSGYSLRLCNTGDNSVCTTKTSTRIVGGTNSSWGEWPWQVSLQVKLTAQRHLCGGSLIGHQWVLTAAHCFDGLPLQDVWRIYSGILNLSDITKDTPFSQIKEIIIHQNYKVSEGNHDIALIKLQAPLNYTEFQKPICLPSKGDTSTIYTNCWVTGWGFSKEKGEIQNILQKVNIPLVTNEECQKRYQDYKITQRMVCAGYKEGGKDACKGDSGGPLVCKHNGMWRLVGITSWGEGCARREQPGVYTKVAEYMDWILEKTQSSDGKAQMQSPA
- ASSAY_INFO: cell-based or functional assay
Numbered stars: 1 amine (or outer) side, 2 acyl side, 3 side chain; on linkers, the order of the positions; unused ones are H or OH. Bridge positions count the residues as written; N and C are the ends. Square brackets hold non-standard residues; d marks the D form. Ends that are not written are not given here. * marks the point of attachment. mXylyl = xylyl linker from dibromoxylene joining the two cysteines; Phe(3-CH2NH2) = O=C([C@H](Cc1cccc(CN[*:3])c1)N[*:1])[*:2]; Ala(1H-tetrazol-5-yl) = N[C@@H](Cc1nnn[nH]1)C(=O)O; des‑NH2 = missing amino-terminal amine group; dPhg = N[C@@H](C(=O)O)c1ccccc1; Chg = N[C@H](C(=O)O)C1CCCCC1; Phg = N[C@H](C(=O)O)c1ccccc1; Tle = CC(C)(C)[C@H](N)C(=O)O; oXylyl = ortho-xylyl linker; NMeS = CN[C@@H](CO)C(=O)O; Heptanoyl = CCCCCCC(=O)*; Nva = CCC[C@H](N)C(=O)O; Ac4c = NC1(C(=O)O)CCC1; Aib = CC(C)(N)C(=O)O; Mpa = O=C(O)CCS
EXPERIMENTAL_ENDPOINT: Avg. IC50 (nM)

[
  {
    "BINDER": "Ac-CESICRVL-NH2 (linker 1-5 via mXylyl) [R2045]",
    "VALUE_UNIT": "nM",
    "REPORTED": 187
  },
  {
    "BINDER": "[Mpa][code a]S[Chg]CR[Tle]-NH2 (linker 1-5 via mXylyl) [R2082]",
    "VALUE_UNIT": "nM",
    "REPORTED": 25.8
  },
  {
    "BINDER": "{des‑NH2}-C[Ac4c]A[dPhg]CR[Tle]-NH2 (linker 1-5 via mXylyl) [R2096]",
    "VALUE_UNIT": "nM",
    "REPORTED": 748
  },
  {
    "BINDER": "MCESICRV-NH2 (linker 2-6 via oXylyl) [R2042]",
    "VALUE_UNIT": "nM",
    "REPORTED": 3190
  },
  {
    "BINDER": "MCES[Phg]CRV-NH2 (linker 2-6 via mXylyl) [R2012]",
    "VALUE_UNIT": "nM",
    "REPORTED": 8.3
  },
  {
    "BINDER": "Heptanoyl-CA[NMeS][dPhg]CR[Tle]-NH2 (linker 1-5 via mXylyl; not fully specified (residue 2); printed as [mXylyl(1,5)]Heptanoyl-C-a-nMeS-(D)Phg-C-R-Tbg-NH2) [R2069]",
    "VALUE_UNIT": "nM",
    "REPORTED": 903
  },
  {
    "BINDER": "[Nva]CESIC[Phe(3-CH2NH2)]V-NH2 (linker 2-6 via mXylyl) [R2022]",
    "VALUE_UNIT": "nM",
    "REPORTED": 21000
  },
  {
    "BINDER": "MC[Ala(1H-tetrazol-5-yl)]SICRV-NH2 (linker 2-6 via mXylyl) [R2020]",
    "VALUE_UNIT": "nM",
    "REPORTED": 13
  },
  {
    "BINDER": "MCESICRV-NH2 (linker 2-6 via 3‑methoxy‑mXylyl) [R2102]",
    "VALUE_UNIT": "nM",
    "REPORTED": 39.7
  },
  {
    "BINDER": "{des‑NH2}-C[Aib]A[Phg]CR[Tle]LRYSE-NH2 (linker 1-5 via mXylyl) [R2099]",
    "VALUE_UNIT": "nM",
    "REPORTED": 0.1
  },
  {
    "BINDER": "[Mpa][code a]A[Phg]CR[Tle]-NH2 (linker 1-5 via mXylyl) [R2079]",
    "VALUE_UNIT": "nM",
    "REPORTED": 17.8
  }
]
